Values from paper PMC12951562

Molecular target: TNS1 (Homo sapiens)
Construct: made in house; host or cells: HEK293 (transient transfection), unpurified extract
Sequence (Q9HBL0 whole entry): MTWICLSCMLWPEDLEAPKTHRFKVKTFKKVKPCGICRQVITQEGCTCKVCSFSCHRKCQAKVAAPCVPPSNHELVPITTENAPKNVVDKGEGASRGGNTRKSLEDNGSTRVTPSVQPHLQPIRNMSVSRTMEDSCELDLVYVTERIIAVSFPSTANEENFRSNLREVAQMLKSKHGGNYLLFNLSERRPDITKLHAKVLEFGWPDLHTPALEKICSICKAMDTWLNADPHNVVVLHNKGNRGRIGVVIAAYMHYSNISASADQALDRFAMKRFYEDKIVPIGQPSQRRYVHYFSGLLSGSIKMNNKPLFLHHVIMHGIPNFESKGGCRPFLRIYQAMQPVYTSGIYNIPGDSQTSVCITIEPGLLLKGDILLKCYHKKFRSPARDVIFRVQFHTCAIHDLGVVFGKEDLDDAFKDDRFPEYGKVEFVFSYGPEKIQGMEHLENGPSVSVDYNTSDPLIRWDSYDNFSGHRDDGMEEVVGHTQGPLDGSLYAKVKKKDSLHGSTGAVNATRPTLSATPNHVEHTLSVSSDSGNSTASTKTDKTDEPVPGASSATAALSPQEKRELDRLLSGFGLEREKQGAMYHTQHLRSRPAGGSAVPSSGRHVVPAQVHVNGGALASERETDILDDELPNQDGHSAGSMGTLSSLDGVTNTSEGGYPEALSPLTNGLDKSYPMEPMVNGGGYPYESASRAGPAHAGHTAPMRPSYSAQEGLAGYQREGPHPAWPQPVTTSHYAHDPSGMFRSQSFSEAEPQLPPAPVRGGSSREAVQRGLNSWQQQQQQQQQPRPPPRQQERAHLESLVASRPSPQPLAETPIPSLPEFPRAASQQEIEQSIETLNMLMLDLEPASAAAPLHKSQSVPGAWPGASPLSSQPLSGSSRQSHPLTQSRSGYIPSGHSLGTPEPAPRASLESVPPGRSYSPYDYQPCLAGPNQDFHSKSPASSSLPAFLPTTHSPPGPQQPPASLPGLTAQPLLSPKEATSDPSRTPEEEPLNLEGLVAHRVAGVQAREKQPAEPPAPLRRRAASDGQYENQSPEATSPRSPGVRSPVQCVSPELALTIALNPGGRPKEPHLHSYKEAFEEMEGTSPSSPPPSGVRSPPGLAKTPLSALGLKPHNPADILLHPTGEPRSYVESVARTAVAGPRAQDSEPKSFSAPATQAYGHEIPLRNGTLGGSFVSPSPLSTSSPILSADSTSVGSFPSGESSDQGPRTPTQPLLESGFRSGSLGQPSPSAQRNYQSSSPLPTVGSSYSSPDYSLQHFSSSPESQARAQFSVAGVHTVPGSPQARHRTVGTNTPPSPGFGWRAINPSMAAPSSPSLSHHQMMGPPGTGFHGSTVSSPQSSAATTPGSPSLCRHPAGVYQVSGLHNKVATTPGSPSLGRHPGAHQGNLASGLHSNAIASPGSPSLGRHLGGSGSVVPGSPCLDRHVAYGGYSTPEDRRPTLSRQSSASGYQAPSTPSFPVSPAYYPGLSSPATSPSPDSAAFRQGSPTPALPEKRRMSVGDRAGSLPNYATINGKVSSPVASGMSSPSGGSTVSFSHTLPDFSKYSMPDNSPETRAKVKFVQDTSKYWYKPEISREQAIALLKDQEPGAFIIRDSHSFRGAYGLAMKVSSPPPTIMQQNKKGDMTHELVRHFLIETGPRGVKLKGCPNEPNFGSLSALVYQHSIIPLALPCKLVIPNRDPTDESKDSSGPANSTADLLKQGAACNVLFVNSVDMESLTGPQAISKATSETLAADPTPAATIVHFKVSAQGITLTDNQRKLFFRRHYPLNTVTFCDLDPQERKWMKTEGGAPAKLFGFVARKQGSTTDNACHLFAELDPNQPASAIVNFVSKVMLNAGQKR
Experiment: biochemical
Assay type: binding
Details: primary screen, 10 μM; read-out: percent of DMSO vehicle control
ATTRIBUTE_MEASURED: remaining activity at 10 µM (%)

query_smiles=CC(C)(C)[C@H](NC(=O)/C=C/c1ccc(OP(=O)(O)O)cc1)C(=O)N1CCC[C@H]1C(=O)N(c1ccccc1)c1ccc(I)cc1 attribute_measured="remaining activity at 10 µM" measurement_units=% measured_result=88.4
query_smiles=O=C(COc1ccc2cc(C(=O)Nc3ccccc3)ccc2c1)NCc1ccc(OP(=O)(O)O)c(OP(=O)(O)O)c1 attribute_measured="remaining activity at 10 µM" measurement_units=% measured_result=132
query_smiles=C/C(=C\C(=O)N[C@H](C(=O)N1CCC[C@H]1C(=O)N(c1ccccc1)c1ccc(I)cc1)C(C)(C)C)c1ccc(OP(=O)(O)O)cc1 attribute_measured="remaining activity at 10 µM" measurement_units=% measured_result=87.6
query_smiles=O=C(CCl)Nc1cccc(CNC(=O)[C@H](Cc2ccc(OP(=O)(O)O)cc2)NC(=O)Cc2ccc(F)cc2)c1 attribute_measured="remaining activity at 10 µM" measurement_units=% measured_result=134

====

Molecular target: FGR (Homo sapiens, UniProt P09769)
Construct: the DNA-tagged SH2 domain concentrations used in this study were <0.1 nM; made in house; host or cells: HEK293 (transient transfection; unpurified extract)
Sequence (P09769 144-241 limits assumed): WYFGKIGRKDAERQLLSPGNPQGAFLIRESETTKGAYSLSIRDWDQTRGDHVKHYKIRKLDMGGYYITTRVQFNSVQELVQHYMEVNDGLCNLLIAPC
Assay: biochemical
Format: binding
Settings: read-out: percent of DMSO vehicle control
Non-standard residues stand in square brackets, D forms with d. Residues, ends and D or L forms follow the SMILES beside them. *: point of attachment. pY = N[C@@H](Cc1ccc(OP(=O)(O)O)cc1)C(=O)O; Caffeoyl = O=C(/C=C/c1ccc(O)c(O)c1)*
ATTRIBUTE_MEASURED: remaining activity at 10 µM (%)

molecule=CC(=O)N1CC[C@H]2CC[C@@H](C(=O)N[C@@H](CCC(N)=O)C(=O)NC(c3ccccc3)c3ccccc3)N2C(=O)[C@@H](NC(=O)c2cc3cc(C(F)(F)P(=O)(O)O)ccc3[nH]2)C1 target_or_system="FGR (Homo sapiens, UniProt P09769)" measurement_units=% measured_result=128
molecule=CC(=O)N[C@@H](Cc1ccc(CP(=O)(O)O)cc1)C(=O)NC1(C(=O)N[C@@H](CC(N)=O)C(=O)NCCCc2c(O)ccc3ccccc23)CCCCC1 target_or_system="FGR (Homo sapiens, UniProt P09769)" measurement_units=% measured_result=43.3
molecule="CC[C@H](C)[C@H](NC(=O)[C@H](CCC(=O)O)NC(=O)[C@H](CCC(=O)O)NC(=O)[C@H](Cc1ccc(OP(=O)(O)O)cc1)NC(=O)/C=C/c1ccc(O)c(O)c1)C(=O)N[C@@H](CCC(=O)O)C(=O)O [Caffeic acid-pYEEIE] (Caffeoyl-[pY]EEIE-OH)" target_or_system="FGR (Homo sapiens, UniProt P09769)" measurement_units=% measured_result=0
molecule="NC(=O)CC[C@H](NC(=O)[C@@H]1CC[C@@H]2CCN(C(=O)CCCCCC#Cc3cccc4c3CN(C3CCC(=O)NC3=O)C4=O)C[C@H](NC(=O)c3cc4cc(C(F)(F)P(=O)(O)O)ccc4[nH]3)C(=O)N21)C(=O)NC(c1ccccc1)c1ccccc1 (stereo partly shown)" target_or_system="FGR (Homo sapiens, UniProt P09769)" measurement_units=% measured_result=82

====

Target: STAT3(N647I)-nonphosphorylated (Homo sapiens, UniProt P40763, N647I)
Construct: made in house; host or cells: HEK293 (transient transfection), unpurified extract, dephosphorylated by endogenous phosphatases
Sequence (P40763 whole entry N647I): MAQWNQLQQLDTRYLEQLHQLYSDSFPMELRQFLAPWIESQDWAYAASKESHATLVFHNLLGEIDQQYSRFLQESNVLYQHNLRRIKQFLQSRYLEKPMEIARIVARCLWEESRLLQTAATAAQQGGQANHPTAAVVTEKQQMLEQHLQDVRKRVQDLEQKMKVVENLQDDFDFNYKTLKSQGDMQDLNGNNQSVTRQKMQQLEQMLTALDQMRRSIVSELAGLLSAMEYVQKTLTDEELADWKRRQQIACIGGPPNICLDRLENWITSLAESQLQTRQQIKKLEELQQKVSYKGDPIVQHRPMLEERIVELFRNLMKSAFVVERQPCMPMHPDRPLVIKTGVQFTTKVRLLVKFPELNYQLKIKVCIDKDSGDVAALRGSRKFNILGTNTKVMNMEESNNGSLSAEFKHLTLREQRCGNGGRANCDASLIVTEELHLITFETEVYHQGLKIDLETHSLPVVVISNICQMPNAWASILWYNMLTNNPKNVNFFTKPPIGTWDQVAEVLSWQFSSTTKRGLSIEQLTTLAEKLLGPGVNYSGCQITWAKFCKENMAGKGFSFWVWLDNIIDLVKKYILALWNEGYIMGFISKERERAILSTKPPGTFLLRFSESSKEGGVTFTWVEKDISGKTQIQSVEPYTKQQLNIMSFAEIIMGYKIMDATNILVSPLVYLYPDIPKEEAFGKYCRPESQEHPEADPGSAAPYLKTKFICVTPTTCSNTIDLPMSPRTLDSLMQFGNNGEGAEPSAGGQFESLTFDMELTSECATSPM
Assay: biochemical
Format: binding
Settings: read-out: percent of DMSO vehicle control
Non-standard residues stand in square brackets, D forms with d. Residues, ends and D or L forms follow the SMILES beside them. *: point of attachment. pY = N[C@@H](Cc1ccc(OP(=O)(O)O)cc1)C(=O)O; Caffeoyl = O=C(/C=C/c1ccc(O)c(O)c1)*
Readings of percent of DMSO vehicle control at 10 µM for the listed compounds
ATTRIBUTE_MEASURED: percent of DMSO vehicle control at 10 µM (%)

compound="CC(=O)N[C@@H](Cc1ccc(CP(=O)(O)O)cc1)C(=O)NC1(C(=O)N[C@@H](CC(N)=O)C(=O)NCCCc2c(O)ccc3ccccc23)CCCCC1 [CGP78850]" attribute_measured="percent of DMSO vehicle control at 10 µM" measurement_units=% measured_result=80.6
compound="NC(=O)CC[C@H](NC(=O)[C@@H]1CC[C@@H]2CCN(C(=O)CCCCCC#Cc3cccc4c3CN(C3CCC(=O)NC3=O)C4=O)C[C@H](NC(=O)c3cc4cc(C(F)(F)P(=O)(O)O)ccc4[nH]3)C(=O)N21)C(=O)NC(c1ccccc1)c1ccccc1 (stereo partly shown) [SD-36]" attribute_measured="percent of DMSO vehicle control at 10 µM" measurement_units=% measured_result=0
compound="CC[C@H](C)[C@H](NC(=O)[C@H](CCC(=O)O)NC(=O)[C@H](CCC(=O)O)NC(=O)[C@H](Cc1ccc(OP(=O)(O)O)cc1)NC(=O)/C=C/c1ccc(O)c(O)c1)C(=O)N[C@@H](CCC(=O)O)C(=O)O [Caffeic acid-pYEEIE] (Caffeoyl-[pY]EEIE-OH)" attribute_measured="percent of DMSO vehicle control at 10 µM" measurement_units=% measured_result=85.3
compound="CC(=O)N1CC[C@H]2CC[C@@H](C(=O)N[C@@H](CCC(N)=O)C(=O)NC(c3ccccc3)c3ccccc3)N2C(=O)[C@@H](NC(=O)c2cc3cc(C(F)(F)P(=O)(O)O)ccc3[nH]2)C1 [SI-109]" attribute_measured="percent of DMSO vehicle control at 10 µM" measurement_units=% measured_result=0.5

====

Target: CBLC (Homo sapiens, UniProt Q9ULV8)
Construct: the DNA-tagged SH2 domain concentrations used in this study were <0.1 nM; made in house; host or cells: HEK293 (transient transfection; unpurified extract)
Sequence (Q9ULV8 219-321 limits assumed): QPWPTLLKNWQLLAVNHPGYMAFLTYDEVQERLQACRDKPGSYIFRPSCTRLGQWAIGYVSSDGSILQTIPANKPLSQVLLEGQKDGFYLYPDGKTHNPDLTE
Experiment: biochemical
Assay type: binding
Conditions: primary screen, 10 μM; read-out: percent of DMSO vehicle control
Readings of remaining activity at 10 µM for the listed compounds
ATTRIBUTE_MEASURED: remaining activity at 10 µM (%)

query_smiles=O=C(CCl)Nc1cccc(CNC(=O)[C@H](Cc2ccc(OP(=O)(O)O)cc2)NC(=O)Cc2ccc(F)cc2)c1 attribute_measured="remaining activity at 10 µM" measured_result=43
query_smiles=C/C(=C\C(=O)N[C@H](C(=O)N1CCC[C@H]1C(=O)N(c1ccccc1)c1ccc(I)cc1)C(C)(C)C)c1ccc(OP(=O)(O)O)cc1 attribute_measured="remaining activity at 10 µM" measured_result=3.3
query_smiles=O=C(COc1ccc2cc(C(=O)Nc3ccccc3)ccc2c1)NCc1ccc(OP(=O)(O)O)c(OP(=O)(O)O)c1 attribute_measured="remaining activity at 10 µM" measured_result=100
query_smiles=CC(C)(C)[C@H](NC(=O)/C=C/c1ccc(OP(=O)(O)O)cc1)C(=O)N1CCC[C@H]1C(=O)N(c1ccccc1)c1ccc(I)cc1 attribute_measured="remaining activity at 10 µM" measured_result=34.7

====

Target: PIK3R2(SH2dom.N-term.) (Homo sapiens)
Construct: SH2dom.N-term. denotes SH2 domain closest to N-terminus of protein; made in house; host or cells: HEK293 (transient transfection, unpurified extract)
Sequence (O00459 330-425 limits assumed): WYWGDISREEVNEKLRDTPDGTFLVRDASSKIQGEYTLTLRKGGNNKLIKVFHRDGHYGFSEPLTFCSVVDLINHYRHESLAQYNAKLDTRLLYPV
Assay: biochemical
Assay type: binding
Conditions: read-out: percent of DMSO vehicle control
Non-standard residues stand in square brackets, D forms with d. Residues, ends and D or L forms follow the SMILES beside them. *: point of attachment. pY = N[C@@H](Cc1ccc(OP(=O)(O)O)cc1)C(=O)O; Caffeoyl = O=C(/C=C/c1ccc(O)c(O)c1)*
Readings of remaining activity at 10 µM for the listed compounds
ATTRIBUTE_MEASURED: remaining activity at 10 µM (%)

compound=CC(=O)N[C@@H](Cc1ccc(CP(=O)(O)O)cc1)C(=O)NC1(C(=O)N[C@@H](CC(N)=O)C(=O)NCCCc2c(O)ccc3ccccc23)CCCCC1 target_or_system="PIK3R2(SH2dom.N-term.) (Homo sapiens)" measured_result=141
compound="NC(=O)CC[C@H](NC(=O)[C@@H]1CC[C@@H]2CCN(C(=O)CCCCCC#Cc3cccc4c3CN(C3CCC(=O)NC3=O)C4=O)C[C@H](NC(=O)c3cc4cc(C(F)(F)P(=O)(O)O)ccc4[nH]3)C(=O)N21)C(=O)NC(c1ccccc1)c1ccccc1 (stereo partly shown)" target_or_system="PIK3R2(SH2dom.N-term.) (Homo sapiens)" measured_result=132
compound="CC[C@H](C)[C@H](NC(=O)[C@H](CCC(=O)O)NC(=O)[C@H](CCC(=O)O)NC(=O)[C@H](Cc1ccc(OP(=O)(O)O)cc1)NC(=O)/C=C/c1ccc(O)c(O)c1)C(=O)N[C@@H](CCC(=O)O)C(=O)O [Caffeic acid-pYEEIE] (Caffeoyl-[pY]EEIE-OH)" target_or_system="PIK3R2(SH2dom.N-term.) (Homo sapiens)" measured_result=0
compound=CC(=O)N1CC[C@H]2CC[C@@H](C(=O)N[C@@H](CCC(N)=O)C(=O)NC(c3ccccc3)c3ccccc3)N2C(=O)[C@@H](NC(=O)c2cc3cc(C(F)(F)P(=O)(O)O)ccc3[nH]2)C1 target_or_system="PIK3R2(SH2dom.N-term.) (Homo sapiens)" measured_result=130
